Quick reference for IC50 among some molecules
- Test system: c-Met (cytoplasmic domain) (Homo sapiens)
- Construct: 10 ng/mL c-Met (cytoplasmic domain, Invitrogen Corporation #PV3143); purchased Invitrogen Corporation PV3143
- Sequence (P08581 956-1390 limits assumed): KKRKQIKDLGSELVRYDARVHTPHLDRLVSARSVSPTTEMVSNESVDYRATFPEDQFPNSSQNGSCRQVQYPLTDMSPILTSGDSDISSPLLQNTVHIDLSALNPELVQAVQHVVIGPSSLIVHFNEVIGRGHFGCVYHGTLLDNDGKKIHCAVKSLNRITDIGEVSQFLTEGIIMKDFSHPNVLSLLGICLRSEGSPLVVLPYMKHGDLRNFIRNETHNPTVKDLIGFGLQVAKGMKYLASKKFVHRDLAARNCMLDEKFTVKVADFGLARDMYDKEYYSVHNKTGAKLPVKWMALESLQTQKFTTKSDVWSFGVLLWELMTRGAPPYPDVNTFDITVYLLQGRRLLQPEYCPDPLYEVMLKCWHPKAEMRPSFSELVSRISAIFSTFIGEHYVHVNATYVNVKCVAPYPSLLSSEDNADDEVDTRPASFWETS
- Procedure text: c-Met Kinase Assay (same methods as for ALK, with modifications)
- Format: biochemical
- Experimental setup: c-Met kinase inhibition, 1 μM ATP; read-out: cMet Activity
Measure: IC50

>  <Molecule>
Cc1cccc(C(N)=O)c1Nc1nc(Nc2ccc3c(c2)N(C(C)C)C(=O)CCC3)ncc1Cl [Example 1475]

>  <Test system>
c-Met (cytoplasmic domain) (Homo sapiens)

>  <Measure>
IC50

>  <Reported measurement>
> 10000 nM

$$$$
>  <Molecule>
CNC(=O)c1cccc(F)c1Nc1nc(Nc2ccc3c(c2)N(C)CCCO3)ncc1Cl [Example 1707]

>  <Test system>
c-Met (cytoplasmic domain) (Homo sapiens)

>  <Measure>
IC50

>  <Reported measurement>
< 100 nM

$$$$
>  <Molecule>
CNC(=O)c1scc(C)c1Nc1nc(Nc2ccc3c(c2)CNC(=O)CC3)ncc1Cl [Example 1795]

>  <Test system>
c-Met (cytoplasmic domain) (Homo sapiens)

>  <Measure>
IC50

>  <Reported measurement>
< 100 nM

$$$$
>  <Molecule>
C#CCNC(=O)c1cc(F)cc(F)c1Nc1nc(Nc2ccc3c(c2)CCN(CCOC)CC3)ncc1Cl [Example 1728]

>  <Test system>
c-Met (cytoplasmic domain) (Homo sapiens)

>  <Measure>
IC50

>  <Reported measurement>
< 100 nM

$$$$
>  <Molecule>
C#CCNC(=O)c1cccc(F)c1Nc1nc(Nc2ccc3c(c2)N(C(C)=O)CCCO3)ncc1Cl [Example 1713]

>  <Test system>
c-Met (cytoplasmic domain) (Homo sapiens)

>  <Measure>
IC50

>  <Reported measurement>
< 100 nM

$$$$
>  <Molecule>
C#CCNC(=O)c1cccc(F)c1Nc1nc(Nc2ccc3c(c2)NCCCC3(C)C)ncc1Cl [Example 1612]

>  <Test system>
c-Met (cytoplasmic domain) (Homo sapiens)

>  <Measure>
IC50

>  <Reported measurement>
100 to 1000 nM

$$$$
>  <Molecule>
CCN1CCNC(=O)c2ccc(Nc3ncc(Cl)c(Nc4ccccc4-c4nccn4C)n3)cc21 [Example 1453]

>  <Test system>
c-Met (cytoplasmic domain) (Homo sapiens)

>  <Measure>
IC50

>  <Reported measurement>
100 to 1000 nM

$$$$
>  <Molecule>
COCCN1CC(=O)Nc2cc(Nc3ncc(Cl)c(N[C@H]4[C@@H](C(N)=O)[C@@H]5C=C[C@H]4C5)n3)c(OC)cc2C1 [Example 1665]

>  <Test system>
c-Met (cytoplasmic domain) (Homo sapiens)

>  <Measure>
IC50

>  <Reported measurement>
> 10000 nM

$$$$
>  <Molecule>
COc1cc2c(cc1Nc1ncc(Cl)c(Nc3ccccc3S(=O)(=O)C(C)C)n1)CCN(CCN1CCOCC1)CC2 [Example 1534]

>  <Test system>
c-Met (cytoplasmic domain) (Homo sapiens)

>  <Measure>
IC50

>  <Reported measurement>
> 10000 nM

$$$$
>  <Molecule>
COc1cc(N2CCOCC2)ccc1Nc1nc(Nc2ccc3c(c2)NCCCC3(C)C)ncc1Cl [Example 1614]

>  <Test system>
c-Met (cytoplasmic domain) (Homo sapiens)

>  <Measure>
IC50

>  <Reported measurement>
> 10000 nM

$$$$
>  <Molecule>
CNC(=O)c1ccccc1Nc1nc(Nc2ccc3c(c2)CNC(=O)CC3)ncc1Cl [Example 1794]

>  <Test system>
c-Met (cytoplasmic domain) (Homo sapiens)

>  <Measure>
IC50

>  <Reported measurement>
< 100 nM

$$$$
>  <Molecule>
CCN1C(=O)CCC(C)(C)c2ccc(Nc3ncc(Cl)c(Nc4c(F)cc(F)cc4C(=O)NC)n3)cc21 [Example 1615]

>  <Test system>
c-Met (cytoplasmic domain) (Homo sapiens)

>  <Measure>
IC50

>  <Reported measurement>
< 100 nM

$$$$
>  <Molecule>
COc1cc2c(cc1Nc1ncc(Cl)c(N[C@@H]3CCCC[C@H]3NS(C)(=O)=O)n1)NC(=O)CNC2 [Example 1655]

>  <Test system>
c-Met (cytoplasmic domain) (Homo sapiens)

>  <Measure>
IC50

>  <Reported measurement>
> 10000 nM

$$$$
>  <Molecule>
CCN1CCCOc2cc(Nc3ncc(Cl)c(N[C@@H]4CCCC[C@H]4NS(C)(=O)=O)n3)c(F)cc21 [Example 1687]

>  <Test system>
c-Met (cytoplasmic domain) (Homo sapiens)

>  <Measure>
IC50

>  <Reported measurement>
1000 to 10000 nM

$$$$
>  <Molecule>
CNC(=O)c1ccccc1Nc1nc(Nc2cc3c(cc2OC)CCOC(=O)N3C)ncc1Cl [Example 1511]

>  <Test system>
c-Met (cytoplasmic domain) (Homo sapiens)

>  <Measure>
IC50

>  <Reported measurement>
1000 to 10000 nM

$$$$

###

- Test system: baculovirus-expressed ALK (Homo sapiens, UniProt Q9UM73)
- Construct: host or cells: baculovirus expression system
- Sequence (Q9UM73 19-1620): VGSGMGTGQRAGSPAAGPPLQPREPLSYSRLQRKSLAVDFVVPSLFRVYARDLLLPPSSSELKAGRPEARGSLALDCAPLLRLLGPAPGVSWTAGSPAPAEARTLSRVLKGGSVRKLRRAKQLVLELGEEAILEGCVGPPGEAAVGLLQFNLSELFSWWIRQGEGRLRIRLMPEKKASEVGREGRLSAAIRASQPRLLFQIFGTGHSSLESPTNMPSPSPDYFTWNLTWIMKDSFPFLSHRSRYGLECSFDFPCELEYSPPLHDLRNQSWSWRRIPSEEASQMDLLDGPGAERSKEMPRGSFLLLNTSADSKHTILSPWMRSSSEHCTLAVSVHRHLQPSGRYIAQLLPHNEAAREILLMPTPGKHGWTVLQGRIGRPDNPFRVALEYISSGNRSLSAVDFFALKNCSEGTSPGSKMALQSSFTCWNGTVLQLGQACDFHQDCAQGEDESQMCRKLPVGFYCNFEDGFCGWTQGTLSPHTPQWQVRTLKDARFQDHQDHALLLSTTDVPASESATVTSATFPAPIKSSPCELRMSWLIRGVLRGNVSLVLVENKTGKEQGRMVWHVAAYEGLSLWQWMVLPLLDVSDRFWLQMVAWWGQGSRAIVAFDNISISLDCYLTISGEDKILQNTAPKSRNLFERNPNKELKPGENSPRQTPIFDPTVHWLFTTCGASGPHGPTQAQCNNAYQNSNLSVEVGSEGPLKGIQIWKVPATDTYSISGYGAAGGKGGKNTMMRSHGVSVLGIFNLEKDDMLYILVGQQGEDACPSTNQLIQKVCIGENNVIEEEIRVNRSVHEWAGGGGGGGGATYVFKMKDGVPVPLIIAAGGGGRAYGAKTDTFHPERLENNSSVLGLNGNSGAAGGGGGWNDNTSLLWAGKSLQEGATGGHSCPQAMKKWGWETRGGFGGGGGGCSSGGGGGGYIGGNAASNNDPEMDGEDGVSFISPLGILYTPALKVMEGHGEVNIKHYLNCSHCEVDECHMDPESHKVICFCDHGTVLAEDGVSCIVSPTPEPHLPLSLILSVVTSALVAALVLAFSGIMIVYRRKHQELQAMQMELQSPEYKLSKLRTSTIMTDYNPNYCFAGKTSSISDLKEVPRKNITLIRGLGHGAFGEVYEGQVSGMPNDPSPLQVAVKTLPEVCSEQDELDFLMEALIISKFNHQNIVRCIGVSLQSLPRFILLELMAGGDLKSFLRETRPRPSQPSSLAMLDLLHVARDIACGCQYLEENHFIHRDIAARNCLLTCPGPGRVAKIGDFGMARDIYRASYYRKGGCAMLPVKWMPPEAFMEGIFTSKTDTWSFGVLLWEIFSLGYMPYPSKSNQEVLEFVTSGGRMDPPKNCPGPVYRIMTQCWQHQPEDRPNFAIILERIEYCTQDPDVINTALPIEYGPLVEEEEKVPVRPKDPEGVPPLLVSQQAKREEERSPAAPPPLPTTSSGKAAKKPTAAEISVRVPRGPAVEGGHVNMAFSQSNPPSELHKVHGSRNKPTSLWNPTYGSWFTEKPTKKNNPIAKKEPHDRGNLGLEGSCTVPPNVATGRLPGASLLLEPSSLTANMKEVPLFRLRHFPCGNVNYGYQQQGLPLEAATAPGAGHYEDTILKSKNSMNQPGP
- Procedure text: ALK Kinase Assay (ELISA-type, time-resolved fluorescence)
- Assay type: biochemical
- Experimental setup: 1 μM ATP (Km level); read-out: ALK Activity (ALK Kinase Inhibition, IC50)

>  <Compound>
COc1ccccc1Nc1nc(Nc2ccc3c(c2)CCC(NCC(F)(F)F)CC3)ncc1Cl (stereo not drawn)

>  <Test system>
baculovirus-expressed ALK (Homo sapiens, UniProt Q9UM73)

>  <IC50>
100 to 1000 nM

$$$$
>  <Compound>
COc1c(Nc2ncc(Cl)c(Nc3ccccc3S(=O)(=O)N3CCCC3)n2)ccc2c1CCC(N1CCCC(O)C1)CC2 (mixture of isomers)

>  <Test system>
baculovirus-expressed ALK (Homo sapiens, UniProt Q9UM73)

>  <IC50>
< 100 nM

$$$$
>  <Compound>
Cc1ccnc(-c2ccccc2Nc2nc(Nc3ccc4c(c3)CCCC(=O)N4C)ncc2Cl)c1

>  <Test system>
baculovirus-expressed ALK (Homo sapiens, UniProt Q9UM73)

>  <IC50>
100 to 1000 nM

$$$$
>  <Compound>
COCC(COC)N1CCc2cc(Nc3ncc(Cl)c(Nc4ccccc4S(=O)(=O)C(C)C)n3)c(OC)cc2CC1

>  <Test system>
baculovirus-expressed ALK (Homo sapiens, UniProt Q9UM73)

>  <IC50>
< 100 nM

$$$$
>  <Compound>
COCCN1CCc2ccc(Nc3ncc(Cl)c(Nc4ccccc4-c4cccc(C)n4)n3)cc2CC1

>  <Test system>
baculovirus-expressed ALK (Homo sapiens, UniProt Q9UM73)

>  <IC50>
< 100 nM

$$$$
>  <Compound>
CCN1CCSc2ccc(Nc3ncc(Cl)c(Nc4ccccc4C(=O)NC)n3)cc2C1

>  <Test system>
baculovirus-expressed ALK (Homo sapiens, UniProt Q9UM73)

>  <IC50>
< 100 nM

$$$$
>  <Compound>
CCNC(=O)c1ccccc1Nc1nc(Nc2cccc3c2OCCCC3(C)C)ncc1Cl

>  <Test system>
baculovirus-expressed ALK (Homo sapiens, UniProt Q9UM73)

>  <IC50>
< 100 nM

$$$$
>  <Compound>
CNC(=O)c1ccccc1Nc1nc(Nc2ccc3c(c2)CN(CCOC(C)=O)CCS3)ncc1Cl

>  <Test system>
baculovirus-expressed ALK (Homo sapiens, UniProt Q9UM73)

>  <IC50>
< 100 nM

$$$$
>  <Compound>
COCCn1ccnc1-c1ccccc1Nc1nc(Nc2ccc3c(c2)C(C)(C)CCC(=O)N3)ncc1Cl

>  <Test system>
baculovirus-expressed ALK (Homo sapiens, UniProt Q9UM73)

>  <IC50>
100 to 1000 nM

$$$$
>  <Compound>
CNC(=O)c1ccccc1Nc1nc(Nc2ccc3c(c2)NC(=O)CCC3)ncc1Cl

>  <Test system>
baculovirus-expressed ALK (Homo sapiens, UniProt Q9UM73)

>  <IC50>
< 100 nM

$$$$
>  <Compound>
COCCNC1CCCc2c(ccc(Nc3ncc(Cl)c(Nc4ccccc4S(=O)(=O)N(C)C)n3)c2OC)C1 (stereo not drawn)

>  <Test system>
baculovirus-expressed ALK (Homo sapiens, UniProt Q9UM73)

>  <IC50>
< 100 nM

$$$$
>  <Compound>
CCN1CC(=O)N(CC)c2cc(Nc3ncc(Cl)c(N[C@@H]4CCCC[C@H]4NS(C)(=O)=O)n3)c(OC)cc2C1

>  <Test system>
baculovirus-expressed ALK (Homo sapiens, UniProt Q9UM73)

>  <IC50>
100 to 1000 nM

$$$$
>  <Compound>
Cc1nnc(-c2ccccc2Nc2nc(Nc3ccc4c(c3)C(C)(C)CCC(=O)N4)ncc2Cl)s1

>  <Test system>
baculovirus-expressed ALK (Homo sapiens, UniProt Q9UM73)

>  <IC50>
100 to 1000 nM

$$$$
>  <Compound>
COc1cc(N2CCOCC2)ccc1Nc1nc(Nc2ccc3c(c2OC)CCCC(N2CCOCC2)C3)ncc1Cl (stereo not drawn)

>  <Test system>
baculovirus-expressed ALK (Homo sapiens, UniProt Q9UM73)

>  <IC50>
< 100 nM

$$$$
>  <Compound>
COCCOC(=O)C1[C@@H]2C=C[C@@H](C2)[C@H]1Nc1nc(Nc2ccc3c(c2OC)CC[C@@H](N2CCOCC2)CC3)ncc1Cl (single isomer, unassigned) [Example 905]

>  <Test system>
baculovirus-expressed ALK (Homo sapiens, UniProt Q9UM73)

>  <IC50>
100 to 1000 nM

$$$$
